Assay: Antiproliferative activity against human HCT116 cells by MTT assay
Type: functional, cell-based
Settings: HCT-116
For each of the molecules below, state its IC50.

Briefly, IC50 measured for CNC(=O)c1ccc(Oc2cccc(NC(=S)Nc3ccc(F)cc3)c2)nc1 : 39.4 µM

Briefly, IC50 measured for CNC(=O)c1ccc(Oc2cccc(NC(=S)Nc3ccc(OC(F)(F)F)cc3)c2)nc1 : 54.7 µM

Briefly, IC50 measured for CNC(=O)c1ccc(Oc2cccc(NC(=S)Nc3ccc(Br)c(C(F)(F)F)c3)c2)nc1 : 3.12 µM

Briefly, IC50 measured for CNC(=O)c1ccc(Oc2cccc(NC(=S)Nc3ccc(Cl)cc3)c2)nc1 : 42.5 µM

Briefly, IC50 measured for CNC(=O)c1ccc(Oc2cccc(NC(=S)Nc3ccc(C)cc3)c2)nc1 : 53.7 µM

Briefly, IC50 measured for CNC(=O)c1ccc(Oc2cccc(NC(=S)Nc3ccc(F)c(C(F)(F)F)c3)c2)nc1 : 19 µM

Briefly, IC50 measured for CNC(=O)c1cc(Oc2cccc(NC(=S)Nc3ccc(Cl)c(C(F)(F)F)c3)c2)ccn1 : 14.6 µM

Briefly, IC50 measured for CNC(=O)c1ccc(Oc2cccc(NC(=S)Nc3ccc(OC)cc3)c2)nc1 : 49.8 µM

Briefly, IC50 measured for CNC(=O)c1ccc(Oc2cccc(NC(=S)Nc3ccc(Cl)cc3Cl)c2)nc1 : 20.9 µM

Briefly, IC50 measured for CNC(=O)c1ccc(Oc2cccc(NC(=S)Nc3ccc(F)c(F)c3)c2)nc1 : 38.2 µM

Briefly, IC50 measured for CNC(=O)c1ccc(Oc2cccc(NC(=S)Nc3cccc(C(F)(F)F)c3)c2)nc1 : 36.6 µM

Briefly, IC50 measured for CNC(=O)c1ccc(Oc2cccc(NC(=S)Nc3ccc(F)c(Cl)c3)c2)nc1 : 25.4 µM

Briefly, IC50 measured for CNC(=O)c1ccc(Oc2cccc(NC(=S)Nc3ccc(C)c(C)c3)c2)nc1 : 48.2 µM

Briefly, IC50 measured for CNC(=O)c1ccc(Oc2cccc(NC(=S)Nc3ccc(Cl)c(C(F)(F)F)c3)c2)nc1 : 2.21 µM

Briefly, IC50 measured for CNC(=O)c1cc(Oc2ccc(NC(=O)Nc3ccc(Cl)c(C(F)(F)F)c3)cc2)ccn1 : 8.41 µM

Briefly, IC50 measured for CNC(=O)c1ccc(Oc2cccc(NC(=S)Nc3cc(C(F)(F)F)cc(C(F)(F)F)c3)c2)nc1 : 2.5 µM

Hello, the source for this data is ChEMBL document CHEMBL3739315, in case you need it.
